# procedure text: AUC (0 to 6 hrs) in Sprague-Dawley rat plasma at 10 mg/kg, ip
# Assay type: ADME, organism-based
# Parameters: time < 6 hr, dose 10 mg/kg, route intraperitoneal
endpoint label: AUC(0-t) at 6 h

>  <cpd smiles>
COc1ccc(CN2C(=O)C(=O)c3cc(OC(F)(F)F)ccc32)cc1

>  <experimental result>
621 ng·h/mL

$$$$

----------
# experimental system: Muscarinic acetylcholine receptor M1 (Rattus norvegicus) (UniProt P08482)
# Sequence (P08482 whole entry): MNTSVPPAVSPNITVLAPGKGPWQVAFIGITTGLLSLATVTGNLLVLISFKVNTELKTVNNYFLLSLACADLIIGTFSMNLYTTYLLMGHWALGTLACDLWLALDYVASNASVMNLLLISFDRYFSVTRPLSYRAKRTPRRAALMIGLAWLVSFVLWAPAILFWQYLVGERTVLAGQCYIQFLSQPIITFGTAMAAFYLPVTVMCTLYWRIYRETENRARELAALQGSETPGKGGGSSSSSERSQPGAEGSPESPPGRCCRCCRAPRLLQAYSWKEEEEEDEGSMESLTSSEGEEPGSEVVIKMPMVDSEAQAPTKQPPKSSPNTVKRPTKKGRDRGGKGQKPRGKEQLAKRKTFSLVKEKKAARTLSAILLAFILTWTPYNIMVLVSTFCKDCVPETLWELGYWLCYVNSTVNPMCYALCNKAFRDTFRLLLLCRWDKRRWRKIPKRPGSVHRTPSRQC
# procedure text: Activation of rat muscarinic M1 receptor expressed in CHO cells co-expressing Gq protein assessed as potentiation of acetylcholine-induced intracellular Ca2+ mobilization at 30 uM relative to acetylcholine
# Format: functional, cell-based
Entries whose %max is below 30% take Satisfied; entries at or above 30% take Not satisfied.

>  <cpd smiles>
Cc1ccc2c(c1)C(=O)C(=O)N2Cc1ccccc1C(F)(F)F

>  <group label>
Satisfied

$$$$
>  <cpd smiles>
COc1cccc(CN2C(=O)C(=O)c3ccccc32)c1

>  <group label>
Satisfied

$$$$
>  <cpd smiles>
O=C1C(=O)N(Cc2ccc(Br)cc2)c2ccc(Cl)cc21

>  <group label>
Satisfied

$$$$
>  <cpd smiles>
COc1cccc(CN2C(=O)C(=O)c3cc(C)ccc32)c1

>  <group label>
Satisfied

$$$$
>  <cpd smiles>
COc1cccc(CN2C(=O)C(=O)c3cc(F)ccc32)c1

>  <group label>
Not satisfied

$$$$
>  <cpd smiles>
O=C1C(=O)N(Cc2ccccc2C(F)(F)F)c2c(Cl)ccc(Cl)c21

>  <group label>
Satisfied

$$$$
>  <cpd smiles>
COc1ccc(CN2C(=O)C(=O)c3cc(OC(F)(F)F)ccc32)cc1

>  <group label>
Satisfied

$$$$
>  <cpd smiles>
O=C1C(=O)N(Cc2ccccc2Cl)c2c(F)cccc21

>  <group label>
Satisfied

$$$$
>  <cpd smiles>
O=C1C(=O)N(Cc2ccc(F)cc2F)c2c(Cl)ccc(Cl)c21

>  <group label>
Satisfied

$$$$
>  <cpd smiles>
COc1ccc(CN2C(=O)C(=O)c3cccc(F)c32)cc1

>  <group label>
Not satisfied

$$$$
>  <cpd smiles>
O=C1C(=O)N(Cc2ccc(C(F)(F)F)cc2)c2ccc(OC(F)(F)F)cc21

>  <group label>
Satisfied

$$$$
>  <cpd smiles>
Cc1ccccc1CN1C(=O)C(=O)c2ccccc21

>  <group label>
Not satisfied

$$$$
>  <cpd smiles>
O=C1C(=O)N(Cc2ccc(F)cc2F)c2c(F)cccc21

>  <group label>
Not satisfied

$$$$
>  <cpd smiles>
Cc1ccccc1CN1C(=O)C(=O)c2cc(OC(F)(F)F)ccc21

>  <group label>
Satisfied

$$$$
>  <cpd smiles>
O=C1C(=O)N(Cc2ccccc2Cl)c2ccc(F)cc21

>  <group label>
Not satisfied

$$$$
>  <cpd smiles>
Cc1cccc2c1N(Cc1ccc(F)cc1F)C(=O)C2=O

>  <group label>
Not satisfied

$$$$
>  <cpd smiles>
COc1ccc(CN2C(=O)C(=O)c3cc(F)ccc32)cc1

>  <group label>
Not satisfied

$$$$
>  <cpd smiles>
COc1ccc(CN2C(=O)C(=O)c3c(Cl)ccc(Cl)c32)cc1

>  <group label>
Satisfied

$$$$
>  <cpd smiles>
O=C1C(=O)N(Cc2c(F)cccc2F)c2c(Cl)ccc(Cl)c21

>  <group label>
Satisfied

$$$$
>  <cpd smiles>
O=C1C(=O)N(Cc2c(F)cccc2F)c2ccc(OC(F)(F)F)cc21

>  <group label>
Satisfied

$$$$
>  <cpd smiles>
O=C1C(=O)N(Cc2ccc(F)cc2F)c2ccc(Cl)cc21

>  <group label>
Not satisfied

$$$$
>  <cpd smiles>
O=C1C(=O)N(Cc2ccccc2F)c2ccccc21

>  <group label>
Not satisfied

$$$$
>  <cpd smiles>
Cc1ccc2c(c1)C(=O)C(=O)N2Cc1ccc(C(F)(F)F)cc1

>  <group label>
Satisfied

$$$$
>  <cpd smiles>
O=C1C(=O)N(Cc2ccc(C(F)(F)F)cc2)c2ccc(Cl)cc21

>  <group label>
Not satisfied

$$$$
>  <cpd smiles>
O=C1C(=O)N(Cc2ccccc2Cl)c2c(Cl)ccc(Cl)c21

>  <group label>
Satisfied

$$$$
>  <cpd smiles>
O=C1C(=O)N(Cc2ccccc2Cl)c2ccccc21

>  <group label>
Not satisfied

$$$$
>  <cpd smiles>
O=C1C(=O)N(Cc2ccccc2F)c2c(Cl)cccc21

>  <group label>
Not satisfied

$$$$
>  <cpd smiles>
Cc1ccccc1CN1C(=O)C(=O)c2cc(F)ccc21

>  <group label>
Not satisfied

$$$$
>  <cpd smiles>
O=C1C(=O)N(Cc2ccc(Br)cc2F)c2ccc(F)cc21

>  <group label>
Not satisfied

$$$$
>  <cpd smiles>
O=C1C(=O)N(Cc2c(F)cccc2F)c2ccc(F)cc21

>  <group label>
Satisfied

$$$$
>  <cpd smiles>
O=C1C(=O)N(Cc2ccc(Br)cc2F)c2ccc(OC(F)(F)F)cc21

>  <group label>
Satisfied

$$$$
>  <cpd smiles>
O=C1C(=O)N(Cc2ccccc2C(F)(F)F)c2c(F)cccc21

>  <group label>
Not satisfied

$$$$
>  <cpd smiles>
O=C1C(=O)N(Cc2ccc(F)cc2F)c2ccc(OC(F)(F)F)cc21

>  <group label>
Satisfied

$$$$
>  <cpd smiles>
O=C1C(=O)N(Cc2ccccc2F)c2ccc(F)cc21

>  <group label>
Not satisfied

$$$$
>  <cpd smiles>
O=C1C(=O)N(Cc2c(F)cccc2F)c2ccccc21

>  <group label>
Not satisfied

$$$$
>  <cpd smiles>
Cc1ccc2c(c1)C(=O)C(=O)N2Cc1ccc(Br)cc1

>  <group label>
Satisfied

$$$$
>  <cpd smiles>
O=C1C(=O)N(Cc2ccccc2C(F)(F)F)c2ccc(F)cc21

>  <group label>
Not satisfied

$$$$
>  <cpd smiles>
O=C1C(=O)N(Cc2c(F)cccc2F)c2c(F)cccc21

>  <group label>
Not satisfied

$$$$
>  <cpd smiles>
Cc1cccc2c1N(Cc1ccccc1F)C(=O)C2=O

>  <group label>
Satisfied

$$$$
>  <cpd smiles>
Cc1ccc2c(c1)C(=O)C(=O)N2Cc1ccc(OC(F)(F)F)cc1

>  <group label>
Satisfied

$$$$
>  <cpd smiles>
O=C1C(=O)N(Cc2ccc(Br)cc2F)c2ccccc21

>  <group label>
Not satisfied

$$$$
>  <cpd smiles>
O=C1C(=O)N(Cc2ccccc2C(F)(F)F)c2c(Cl)cccc21

>  <group label>
Not satisfied

$$$$
>  <cpd smiles>
O=C1C(=O)N(Cc2ccc(OC(F)(F)F)cc2)c2ccc(Cl)cc21

>  <group label>
Not satisfied

$$$$
